Tested system: Abl (Homo sapiens)
Sequence (P00519 whole entry, species assumed): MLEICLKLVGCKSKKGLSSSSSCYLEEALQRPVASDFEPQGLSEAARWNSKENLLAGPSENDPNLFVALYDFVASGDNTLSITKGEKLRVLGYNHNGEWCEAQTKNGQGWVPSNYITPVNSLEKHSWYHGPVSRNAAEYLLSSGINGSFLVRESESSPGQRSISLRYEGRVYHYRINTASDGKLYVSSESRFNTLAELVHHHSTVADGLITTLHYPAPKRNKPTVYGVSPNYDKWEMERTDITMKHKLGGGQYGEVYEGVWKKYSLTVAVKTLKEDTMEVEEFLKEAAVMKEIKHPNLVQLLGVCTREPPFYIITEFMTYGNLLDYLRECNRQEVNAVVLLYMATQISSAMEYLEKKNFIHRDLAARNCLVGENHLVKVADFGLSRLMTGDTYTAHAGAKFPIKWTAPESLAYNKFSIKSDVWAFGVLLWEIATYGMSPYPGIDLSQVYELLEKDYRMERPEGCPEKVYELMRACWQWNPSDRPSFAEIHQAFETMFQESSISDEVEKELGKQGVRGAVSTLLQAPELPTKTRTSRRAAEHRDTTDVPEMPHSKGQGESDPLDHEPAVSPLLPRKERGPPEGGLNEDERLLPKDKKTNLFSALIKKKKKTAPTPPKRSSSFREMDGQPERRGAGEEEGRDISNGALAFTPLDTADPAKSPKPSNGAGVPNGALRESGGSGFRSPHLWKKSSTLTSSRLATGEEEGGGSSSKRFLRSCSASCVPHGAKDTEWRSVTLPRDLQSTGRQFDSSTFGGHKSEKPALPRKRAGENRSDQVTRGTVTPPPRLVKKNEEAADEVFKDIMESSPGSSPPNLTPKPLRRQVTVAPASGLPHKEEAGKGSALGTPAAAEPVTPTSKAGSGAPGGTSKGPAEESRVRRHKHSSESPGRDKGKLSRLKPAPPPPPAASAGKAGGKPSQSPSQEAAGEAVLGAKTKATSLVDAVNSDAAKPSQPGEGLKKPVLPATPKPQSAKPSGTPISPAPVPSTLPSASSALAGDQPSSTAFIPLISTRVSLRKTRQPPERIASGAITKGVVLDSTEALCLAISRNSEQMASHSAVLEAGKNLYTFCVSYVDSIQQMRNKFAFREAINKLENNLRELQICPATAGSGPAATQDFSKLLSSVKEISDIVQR
Assay explanation: Abl kinase assay
Assay type: biochemical
Recorded conditions: 10 μM compound; read-out: Abl percent of inhibition
Observed property: inhibition at 10 µM (%)

Worked examples follow.
Clc1cccc(Nc2ncnc3sc4ccccc4c23)c1 ... 8
FC(F)(F)c1cccc(Nc2nc(C3CC3)nc3sc4c(c23)CCCC4)c1 ... 0
Fc1cccc(Nc2ncnc3sc4ccccc4c23)c1 ... -4
Nc1ccc(Nc2ncnc3sc4c(c23)CCCC4)cc1 ... 19
O=[N+]([O-])c1cccc(Nc2nc(C3CC3)nc3sc4c(c23)CCCC4)c1 ... -15

(1) COc1cccc(Nc2nc(C3CC3)nc3sc4ccccc4c23)c1
(2) COc1cccc(Nc2nc(C3CC3)nc3sc4c(c23)CCCC4)c1
Lab note: check whether 1 or 2 has the lower measured inhibition at 10 µM. Kindly give the label for the entry you pick.
1
(1: 7%, 2: 12%)

(A) Fc1cccc(Nc2nc(C3CC3)nc3sc4ccccc4c23)c1
(B) Clc1cccc(Nc2nc(C3CC3)nc3sc4ccccc4c23)c1
Between these two entries, A and B , state which has the higher inhibition at 10 µM. Could you answer with the label of the item you picked?
B
(B: 7%, A: 3%)
